# Tested on: Calpain activity in SH-SY5Y cells
# TEST_NAME: SH-SY5Y + AMC fluorescence assay (Suc-LLVY-AMC substrate)
# Assay type: cell-based
# ASSAY_CONDITIONS: read-out: SH-SY5Y + AMC IC50
pIC50: −log10 of the molar value.
Here, each record is paired with measured pIC50 data.

Recorded pIC50, per entry:
COMPOUND	TEST_VALUE
CC(C)CC(NC(=O)c1nsnc1-c1ccccc1)C(=O)C(N)=O (centres unmarked) [Compound 465]	< 4.60
NC(=O)C(=O)C(Cc1ccccc1)NC(=O)c1nsnc1-c1cccc2c1OC(F)(F)O2 (centres unmarked) [Compound 578]	> 5.00
Cn1cc(C(=O)NC(Cc2ccccc2)C(=O)C(N)=O)c(-c2cccc(C(F)F)c2)n1 (centres unmarked) [Compound 508]	> 5.00
NC(=O)C(=O)[C@H](Cc1ccccc1)NC(=O)c1cc(C(F)(F)F)nn1-c1ccccc1 [Compound 305]	> 5.00
Cn1cc(C(=O)N[C@@H](Cc2ccccc2)C(=O)C(N)=O)c(-c2cnccn2)n1 [Compound 313]	< 4.60

According to the records, this compound C#CCOCc1ccc(-c2nsnc2C(=O)N[C@@H](Cc2ccccc2)C(=O)CF)cc1 [Compound 362] displays pIC50 of < 4.60

Per the records, this compound ( COc1cc(C(=O)NC(Cc2ccccc2)C(=O)C(N)=O)n(-c2ccccc2)n1 (centres unmarked) [Compound 392] ) has pIC50 equal to > 5.00

In plain terms, Cc1cc(C)cc(CC(NC(=O)c2nsnc2-c2ccccc2)C(=O)C(N)=O)c1 (centres unmarked) [Compound 466] has a documented pIC50 of < 4.60
